Origin of the recorded values: patent US20150087627A1

measuredOn: PI3K δ (Homo sapiens, UniProt O00329)
Construct: purchased Upstate / Millipore Corporation
Sequence (O00329 whole entry): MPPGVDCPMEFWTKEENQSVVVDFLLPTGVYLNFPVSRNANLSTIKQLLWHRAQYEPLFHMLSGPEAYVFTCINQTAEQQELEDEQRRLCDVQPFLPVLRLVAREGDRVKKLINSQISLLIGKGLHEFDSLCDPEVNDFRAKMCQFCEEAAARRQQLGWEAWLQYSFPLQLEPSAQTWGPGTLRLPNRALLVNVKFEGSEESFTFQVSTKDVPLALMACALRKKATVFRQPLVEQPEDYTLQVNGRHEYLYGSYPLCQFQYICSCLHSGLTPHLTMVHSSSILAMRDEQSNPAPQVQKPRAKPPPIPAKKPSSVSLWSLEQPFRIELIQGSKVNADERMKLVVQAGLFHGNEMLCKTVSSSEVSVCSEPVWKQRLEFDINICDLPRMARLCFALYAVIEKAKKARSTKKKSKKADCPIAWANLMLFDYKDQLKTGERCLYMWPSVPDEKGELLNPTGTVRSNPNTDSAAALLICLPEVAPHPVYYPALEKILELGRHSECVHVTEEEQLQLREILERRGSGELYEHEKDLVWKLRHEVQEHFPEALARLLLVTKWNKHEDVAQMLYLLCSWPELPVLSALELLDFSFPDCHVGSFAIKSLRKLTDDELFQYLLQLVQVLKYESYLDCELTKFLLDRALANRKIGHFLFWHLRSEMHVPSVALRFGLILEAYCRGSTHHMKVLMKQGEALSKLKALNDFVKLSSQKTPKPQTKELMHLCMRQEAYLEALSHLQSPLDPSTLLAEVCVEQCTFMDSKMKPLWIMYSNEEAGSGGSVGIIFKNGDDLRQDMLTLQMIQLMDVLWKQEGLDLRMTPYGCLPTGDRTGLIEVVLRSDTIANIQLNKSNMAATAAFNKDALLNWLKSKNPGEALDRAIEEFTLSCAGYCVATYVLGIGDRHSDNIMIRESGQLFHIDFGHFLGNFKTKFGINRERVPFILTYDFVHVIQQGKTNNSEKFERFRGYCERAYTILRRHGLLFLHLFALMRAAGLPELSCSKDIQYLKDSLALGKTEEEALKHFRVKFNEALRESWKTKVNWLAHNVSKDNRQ
Sequence (P27986 whole entry partner): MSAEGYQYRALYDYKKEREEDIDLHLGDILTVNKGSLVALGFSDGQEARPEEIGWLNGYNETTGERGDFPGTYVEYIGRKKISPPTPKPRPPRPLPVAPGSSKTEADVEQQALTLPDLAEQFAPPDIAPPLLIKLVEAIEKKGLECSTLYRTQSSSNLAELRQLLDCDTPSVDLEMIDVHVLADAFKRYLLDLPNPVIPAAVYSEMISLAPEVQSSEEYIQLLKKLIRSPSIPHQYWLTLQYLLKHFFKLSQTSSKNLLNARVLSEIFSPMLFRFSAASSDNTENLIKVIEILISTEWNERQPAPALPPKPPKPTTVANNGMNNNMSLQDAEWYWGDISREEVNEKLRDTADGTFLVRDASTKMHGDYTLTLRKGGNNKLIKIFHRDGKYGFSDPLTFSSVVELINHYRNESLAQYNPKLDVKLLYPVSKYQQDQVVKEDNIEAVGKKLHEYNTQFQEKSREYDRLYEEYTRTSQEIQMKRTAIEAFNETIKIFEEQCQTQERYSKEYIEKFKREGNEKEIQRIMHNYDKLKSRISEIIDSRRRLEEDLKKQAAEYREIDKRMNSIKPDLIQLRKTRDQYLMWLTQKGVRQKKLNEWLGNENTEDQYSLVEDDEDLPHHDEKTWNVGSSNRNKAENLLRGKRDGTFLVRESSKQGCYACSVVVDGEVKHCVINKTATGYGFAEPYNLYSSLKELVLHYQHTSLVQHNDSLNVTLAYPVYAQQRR
protocolNotes: PI 3-Kinase (human) HTRF assay, PI3K δ
Type: biochemical
experimentalParameters: read-out: PI3K δ IC50
pIC50: −log10 of the molar value.
Parameter pIC50: see the listing below.

>>> print(df.to_string())
                                   compound  result
0  Nc1nc2cc(-c3ccc4ncc(C(=O)N5CC[C@H](N6CCOCC6)C5)n4c3)ccc2o1 [Compound 465]  < 5.00
1  COc1ncc(-c2ccc3ncc(C(=O)N4CCOCC4)n3c2)cc1NS(=O)(=O)c1ccc(F)cc1F [Compound 417]  > 7.00
2  Cc1ncc(-c2ccc3ncc(C(=O)N4CCOCC4)n3c2)c2cc[nH]c12 [Compound 536]  < 5.00
3  Nc1nc2cc(-c3cn4c(C(=O)N5CCOCC5)cnc4cn3)ccc2o1 [Compound 122]  < 5.00
4  CN1CCN(Cc2nnc3ccc(-c4ccc5nc(N)oc5c4)cn23)CC1 [Compound 547]  < 5.00

Which pIC50 is reported for this compound? Nc1nc2cc(-c3ccc4ncc(C(=O)N5CCn6cncc6C5)n4c3)ccc2o1 [Compound 493]
< 5.00

---

Listed next: entries and their corresponding pIC50.
measuredOn: PI3K δ (Homo sapiens)
Construct: purchased Upstate / Millipore Corporation
protocolNotes: PI 3-Kinase (human) HTRF assay, PI3K δ
Format: biochemical
experimentalParameters: read-out: PI3K δ IC50
pIC50: −log10 of the molar value.

Example entries begin here.
>>> print(df.to_string())
                                   molecule  measurementtype  result
0  Nc1nc2cc(-c3ccc4ncc(C(=O)N5CCC(F)(F)C5)n4c3)ccc2o1            pIC50  < 5.00
1         Nc1nc2ccc(-c3ccc4nc(N)oc4c3)cc2o1            pIC50  < 5.00
2  CNS(=O)(=O)c1cccc(-c2ccc3ncc(C(=O)N4CCOCC4)n3c2)c1            pIC50  < 5.00

Param readout= pIC50; system= PI3K δ (Homo sapiens); entry= "CC(=O)Nc1cn2cc(-c3ccc4nccc(-c5ccncc5)c4c3)ccc2n1" ; returns value.
< 5.00

Look up pIC50 with PI3K δ (Homo sapiens) for this molecule: "CC(C)(C)N1CCN(c2cnc3ccc(-c4ccc5oc(N)nc5c4)cc3n2)CC1"
> 6.00

Item "CCn1cnc2ccc(-c3ccc4oc(N)nc4c3)cc2c1=O" with PI3K δ (Homo sapiens) - pIC50?
> 5.00

Request - read-out pIC50 | tested on PI3K δ (Homo sapiens) | molecule "C[C@@H]1CCCN1C(=O)c1cnc2ccc(-c3ccc4oc(N)nc4c3)cn12"
> 5.00

Query pIC50 on PI3K δ (Homo sapiens) for CN(C)CC(=O)N1CCN(c2cnc3ccc(-c4ccc5oc(N)nc5c4)cc3n2)CC1 [Compound 217]
> 6.00

Kindly state the measured pIC50 obtained for "Cc1nc2ccc(-c3ccc4oc(N)nc4c3)nn2c1-c1ccncc1" with PI3K δ (Homo sapiens).
< 5.00

---

measuredOn: PI3K α (p110α/p85α) (Homo sapiens, UniProt P42336)
Construct: purchased Upstate / Millipore Corporation
Sequence (P42336 whole entry, one chain of several): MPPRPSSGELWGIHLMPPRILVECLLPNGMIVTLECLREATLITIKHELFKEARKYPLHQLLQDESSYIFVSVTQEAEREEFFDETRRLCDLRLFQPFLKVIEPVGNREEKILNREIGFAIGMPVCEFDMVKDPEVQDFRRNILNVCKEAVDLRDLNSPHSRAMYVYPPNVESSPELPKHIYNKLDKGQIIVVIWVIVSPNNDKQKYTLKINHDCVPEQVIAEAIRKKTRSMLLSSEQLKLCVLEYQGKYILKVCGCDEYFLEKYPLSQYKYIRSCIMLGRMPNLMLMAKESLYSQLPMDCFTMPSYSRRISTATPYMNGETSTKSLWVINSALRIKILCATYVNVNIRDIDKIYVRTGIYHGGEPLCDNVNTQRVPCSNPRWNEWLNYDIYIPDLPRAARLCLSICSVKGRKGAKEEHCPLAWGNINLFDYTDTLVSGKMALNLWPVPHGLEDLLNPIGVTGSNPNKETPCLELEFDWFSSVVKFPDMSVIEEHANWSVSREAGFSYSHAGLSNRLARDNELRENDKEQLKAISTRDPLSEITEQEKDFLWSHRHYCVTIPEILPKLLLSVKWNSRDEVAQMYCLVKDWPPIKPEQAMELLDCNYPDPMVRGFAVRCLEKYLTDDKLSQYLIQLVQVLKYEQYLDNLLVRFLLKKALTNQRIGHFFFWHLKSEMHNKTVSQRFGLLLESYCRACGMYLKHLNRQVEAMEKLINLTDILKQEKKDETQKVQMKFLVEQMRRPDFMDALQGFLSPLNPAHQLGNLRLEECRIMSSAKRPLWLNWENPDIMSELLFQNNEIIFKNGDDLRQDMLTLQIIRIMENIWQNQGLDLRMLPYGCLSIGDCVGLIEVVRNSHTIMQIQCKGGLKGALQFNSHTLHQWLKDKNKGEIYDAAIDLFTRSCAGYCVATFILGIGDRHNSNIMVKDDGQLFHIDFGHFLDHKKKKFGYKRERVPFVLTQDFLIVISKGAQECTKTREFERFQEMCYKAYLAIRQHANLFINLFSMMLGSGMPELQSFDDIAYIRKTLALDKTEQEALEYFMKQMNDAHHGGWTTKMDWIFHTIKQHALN
protocolNotes: PI 3-Kinase (human) HTRF assay, PI3K α
Assay type: biochemical
measurementType: IC50

Using the record for CN1CCC(N(C)c2cnc3ccc(-c4ccc5oc(N)nc5c4)cc3n2)CC1 [Compound 151] , report its IC50.
< 100 nM
